# SUBJECT_OF_TEST: Substance-P receptor (Rattus norvegicus, UniProt P14600)
# Sequence (P14600 whole entry): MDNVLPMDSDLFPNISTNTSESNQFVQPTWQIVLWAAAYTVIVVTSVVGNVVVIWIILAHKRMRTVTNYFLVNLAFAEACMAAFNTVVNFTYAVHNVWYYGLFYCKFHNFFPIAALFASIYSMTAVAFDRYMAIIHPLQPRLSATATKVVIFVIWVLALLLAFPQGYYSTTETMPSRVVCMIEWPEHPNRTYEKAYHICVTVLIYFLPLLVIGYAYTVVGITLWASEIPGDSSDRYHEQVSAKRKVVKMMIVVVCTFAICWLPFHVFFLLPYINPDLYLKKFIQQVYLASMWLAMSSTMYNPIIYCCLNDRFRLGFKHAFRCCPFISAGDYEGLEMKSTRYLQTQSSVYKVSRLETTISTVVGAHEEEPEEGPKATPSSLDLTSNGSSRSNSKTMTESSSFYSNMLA
PROPERTY: pKi
pKi is defined as minus the log10 of a concentration measured in mol/L.

What does the data say about its pKi? Entry: CC(=O)N(C)C1(c2ccccc2)CCN(CCCC2(c3ccc(Cl)c(Cl)c3)CCCN(C(=O)c3ccccc3)C2)CC1 (stereo unspecified)
5.70

Where do these numbers come from? They come from BindingDB's records for doi:10.1016/0024-3205(94)00413-m.
